Give measured Rate of reduction in moisture for each item. Keep answers brief.
- TEST SUMMARY: Water retention property test 2 (hydrates)
- Type: physicochemical
- SETTINGS: hydrate (anhydrides: aqueous solution at mono- to trihydrate concentration); unsealed, 24 hours at 40° C. and 25% RH
Expressed in %, but write only the number.

IN: Returns the measured Rate of reduction in moisture for the input compound. Input: `CC(O)C(=O)O.CCC(N)(CO)CO`
OUT: 3.0

IN: Name the recorded Rate of reduction in moisture for `O=C(O)CO.OCCNCCO` .
OUT: 3.0

IN: Entry under review: `CCC(N)(CO)CO.O=C(O)CC(O)(CC(=O)O)C(=O)O` . Reported Rate of reduction in moisture?
OUT: 4.9

---

- TEST SUMMARY: Water retention property test 2 (hydrates)
- Assay type: physicochemical
- SETTINGS: hydrate (anhydrides: aqueous solution at mono- to trihydrate concentration); before the test
ASSAY ENDPOINT: Pre-test moisture rate (%)
I only need the number, in %, no unit after it.

IN: Sample CCCC[N+](CCCC)(CCCC)CCCC.[Br-] [Comparative example C5] — what was its Pre-test moisture rate?
OUT: 10.1

IN: I would be grateful if you could share the reported Pre-test moisture rate for NC(CO)CO.O=C1O[C@H]([C@@H](O)CO)C(O)=C1O [Comparative example C106] .
OUT: 11.9

IN: For the compound CC(O)C(=O)[O-].OCC[N+](CCO)(CCO)CCO [Working example C87] , what Pre-test moisture rate is on record?
OUT: 11.2

IN: Param item = CS(=O)(=O)[O-].C[N+](C)(C)CCO [Working example C93] ; retrieve measured Pre-test moisture rate.
OUT: 8.3

IN: Sample Br.CCC(N)(CO)CO [Working example C79] — what was its Pre-test moisture rate?
OUT: 15.3

IN: # query: Pre-test moisture rate of entry CCCC[N+](CCCC)(CCCC)CCCC.[Br-] [Comparative example C4]
OUT: 2.5

IN: Reported Pre-test moisture rate, compound CCC(N)(CO)CO.Cl [Working example C80] : ____
OUT: 18.8

IN: Which Pre-test moisture rate is listed for CC(O)C(=O)O.NC(CO)(CO)CO [Working example C81] ?
OUT: 13.2

IN: Form field: reported Pre-test moisture rate of Cl.NC(CO)CO [Working example C75]
OUT: 22.0

IN: Entry CC(O)C(=O)[O-].CCC(CO)(CO)[N+](CC(O)CO)(CC(O)CO)CC(O)CO (centres unmarked) [Working example C86] has what Pre-test moisture rate?
OUT: 7.9

IN: Which measured Pre-test moisture rate value corresponds to C[N+](C)(C)CCO.O=P([O-])(O)O [Working example C94] ?
OUT: 8.2

IN: Report Pre-test moisture rate for C[N+](C)(C)CCO.O=C([O-])CO [Working example C89] please.
OUT: 9.1

IN: Can you look up the measured Pre-test moisture rate of C[N+](C)(C)CCO.O=C([O-])C=CC(=O)O [Working example C91] for me?
OUT: 7.6

IN: Which Pre-test moisture rate value is on record for OCC(O)CO [Comparative example C12] ?
OUT: 37.0

IN: What Pre-test moisture rate value was documented for this compound, CC(N)(CO)CO.O=C1O[C@H]([C@@H](O)CO)C(O)=C1O [Working example C116] ?
OUT: 11.4

IN: # query: Pre-test moisture rate of entry CC(N)(CO)CO.CC(O)C(=O)O [Working example C114]
OUT: 15.6

IN: I'd like to know its Pre-test moisture rate. The compound in question is CC[N+](C)(C)CCO.CS(=O)(=O)[O-] [Working example C97]
OUT: 7.8
